Every entry's value here was drawn from PubChem BioAssay (NCATS).

test system: HaCat; test: Cytotoxic Profiling of Annotated Libraries Using Quantitative High-Throughput Screening (AID 1296008); conditions: Five cell lines viability, CellTiter-Glo ATP luminescence, 48-72 h; also: nearly all actives have a fitted effect of over 60% in size
Results filed as inconclusive are left out. Active and inactive are the calls of the source. Calls follow the shape of the dose curve; as a rule, active = well fitted inhibition curve with a large enough effect; inconclusive = small, poorly fitted or top-dose-only effect; inactive = flat fitted curve, though single readings scatter.
observed.property: outcome

Observe how each entry below is paired with its result.
{"molecule": "CC1=C2C[C@@]3(C)C(CCC[C@@H]3C)C(O)C2(O)OC1=O (stereo partly drawn)", "outcome": "inactive"}
{"molecule": "CC1CC(=O)[C@]2(O)C(C(=O)OCCc3ccc(O)cc3)=CO[C@@H](O[C@@H]3O[C@H](CO)[C@@H](O)[C@H](O)[C@H]3O)[C@H]12 (stereo partly drawn)", "outcome": "inactive"}
{"molecule": "CC12CC(O)C(O)C=C1c1cc(O)cc(O)c1C(=O)O2 (stereo not drawn)", "outcome": "inactive"}
{"molecule": "O=C(/C=C/c1ccccc1)O[C@@H]1[C@@H](CO)O[C@@](CO)(O[C@H]2O[C@H](CO)[C@@H](O)[C@H](O)[C@H]2O)[C@H]1O", "outcome": "inactive"}
{"molecule": "O=C(NCCN1CCCC1)c1cc(-c2ccc(CN3CCOCC3)cc2)nc2ccc(F)cc12", "outcome": "inactive"}

Return outcome for the following molecule: CC1CC2OCC3(O)CCC(O)C(C14CC(c1ccoc1)OC4=O)C23CO (stereo not drawn)
inactive

Fill in reported outcome for this entry: Cn1c2ccc(NC(=O)c3ccccc3)cc2c(=O)n2nc(C(=O)O)cc12
inactive

Give outcome for the following molecule: CC1OC(OC2C(OC3C(O[C@H]4CC[C@@]5(C)C(CC[C@]6(C)C5C(=O)CC5=C7CC(C)(C)CC(O)[C@]7(C)CC[C@]56C)C4(C)C)OC(C(=O)O)C(O)C3O)OCC(O)C2O)C(O)C(O)C1O (stereo partly drawn)
inactive

###

Let's look at some compounds and their measured max response.
System: KB-3-1
Assay: Cytotoxic Profiling of Annotated Libraries Using Quantitative High-Throughput Screening (AID 1296008); also: nearly all actives have a fitted effect of over 60% in size; as to max response: % is scaled to controls: 0 for no effect and ±100 for the full control effect
Settings: Five cell lines viability, CellTiter-Glo ATP luminescence, 48-72 h; stronger effect = lower value
Experimental: Cell-based phenotypic screening is a commonly used approach to discover biological pathways, novel drug targets, chemical probes and high-quality hit-to-lead molecules. […] A pintool (Kalypsys) was used to transfer 23 nL of compound solution to the 1536-well assay plates. […] Plates were left at room temperature for 10 min before imaging the ATP-coupled luminescence using a ViewLux microplate imager (PerkinElmer, Waltham, MA).
Inconclusive results are not listed.
Give your result in % as a bare value.

Worked cases, answers included:
{"compound": "Nc1ccc(-n2nc(C(F)(F)F)cc2C(F)(F)F)cc1", "target.system": "KB-3-1", "max response, %": 7.09}
{"compound": "CC1CCC2C(C)(C)C(O)C(O)CC2(C)C12Cc1c(O)cc(CO)c(C=O)c1O2 (stereo unspecified)", "target.system": "KB-3-1", "max response, %": 2.63}

Please report the measured max response for COc1c(O)cc2c(c1O)C(=O)O[C@H](C)[C@H]2O
4.43

Find the measured max response of COc1cc(CO)cc(OC)c1O[C@@H]1O[C@H](CO)[C@@H](O)[C@H](O)[C@H]1O and report it.
4.69

Check the records and state max response for CN1C(=O)N(c2cc(Cl)cc(Cl)c2)C(=O)[C@@]1(C)Cc1ccc(Br)cc1
3.14

Supply max response value. Item: Cc1cc(Cn2cnc3c2CC(C(=O)O)N(C(=O)C(c2ccccc2)c2ccccc2)C3)ccc1N(C)C (stereo unspecified)
5.82

Please list max response recorded for the compound CC1(O)CCC2C(C3C1CCC3(C)O)C2(C)C (stereo unspecified)
7.36

Find the measured max response of CC[C@H](NC(=O)c1c(O)c(-c2ccccc2)nc2ccccc12)c1ccccc1 and report it.
-1.35

Give the value of max response reported for the following: COc1cc(/C=C/c2ccccc2)c(C(=O)O)c(O)c1CC=C(C)C
6.27

Name the recorded max response of the item C=C1C(OC(C)=O)CCC2(C)CCC(C(C)(C)O)CC12 (stereo unspecified) in your answer.
1.41

Please look at this compound and report its max response: O=C(CCCCC1CCCCC1)N1CCC(c2cnc[nH]2)CC1
-20.1

###

experiment: Primary qHTS for inhibitors of nuclear receptor binding SET domain protein 2 (NSD2) in an RCH-ACV wild type WT cells (2C) (AID 1645877); conditions: RCH-ACV (leukaemia line) NSD2 WT (2C) viability, CellTiter-Glo, 72 h; series mostly up to 44.9 µM; also: nearly all actives have a fitted effect of over 70% in size; as to activity change, negative = cell killing: % is scaled to controls: 0 for no effect and ±100 for the full control effect
Records with an inconclusive call do not appear. Active and inactive are the calls of the source. Calls come from the whole dose curve; as a rule, active = well fitted inhibition curve with a large enough effect; inconclusive = small, poorly fitted or top-dose-only effect; inactive = no such curve, though single readings can be large or run the other way.
observed.property: activity change, negative = cell killing

{"compound": "COc1ccc(C2(O)c3c(ccc4c3OC(C)(CCC=C(C)C)C=C4)NC(=O)C2OC)cc1 (centres undefined)", "result": "inactive"}
{"compound": "CN(C)c1ccc(C2O[C@@H](c3ccccc3)C[C@H](c3ccccc3)O2)cc1 (some centres undefined)", "result": "inactive"}
{"compound": "CC1(C)CC[C@]2(C(=O)O[C@@H]3O[C@H](CO)[C@@H](O)[C@H](O)[C@H]3O)CC[C@]3(C)C(=CCC4[C@@]5(C)C[C@H](O)[C@H](O[C@@H]6OC[C@@H](O)[C@H](O)[C@H]6O)[C@@](C)(CO)C5CC[C@]43C)C2C1 (some centres undefined)", "result": "2.07% [at 9.23 µM] (inactive)"}
{"compound": "C/C=C/C(=O)OC1/C=C/C(O)C(OC(C)=O)CCC(=O)OC1C (centres undefined)", "result": "inactive"}

###

test system: Es-2; assay: Primary qHTS to identify gynecologic anti-cancer compounds using libraries of approved drugs and bioactive compounds (AID 1345084); settings: Gynecologic cancer cell panel viability, ATPlite luminescence, 48 h; series mostly up to 57.5 µM; also: % is scaled to controls: 0 for no effect and ±100 for the full control effect; nearly all actives have a fitted effect of over 55% in size
Inconclusive results are not listed. Activity calls are given as the source filed them. The call rests on the fitted dose curve; in most records, active means well fitted cell-killing curve with a large enough effect; inconclusive means small, poorly fitted or top-dose-only effect, or effect the other way; inactive means flat fitted curve, though single readings scatter.
observed.property: activity change, negative = cytotoxicity

Reference set, count: 8
{"molecule": "Cn1nccc1-c1ccccc1Oc1ccc(S(=O)(=O)Nc2nccs2)cc1C#N", "observed.property": "activity change, negative = cytotoxicity", "result": "inactive"}
{"molecule": "Cc1ccc(-c2c(-c3nn(C)c4ncnc(N5CCC(N6CCCCC6)C5)c34)cnn2C)cc1 (centres undefined)", "observed.property": "activity change, negative = cytotoxicity", "result": "inactive"}
{"molecule": "C=C1CC23CC(=O)C4C(CO)(CO)CCCC4(C)C2CCC1C3 (centres undefined)", "observed.property": "activity change, negative = cytotoxicity", "result": "inactive"}
{"molecule": "COc1cc(O)cc(C)c1C(=O)OC1C(CO)OC(n2ccc(=O)[nH]c2=O)C1OC(C)=O (centres undefined)", "observed.property": "activity change, negative = cytotoxicity", "result": "inactive"}
{"molecule": "CCCO[C@@H]1O[C@H](CO)[C@@H](O)[C@H](O)[C@H]1O[C@@H]1OC[C@@H](O)[C@H](O)[C@H]1O", "observed.property": "activity change, negative = cytotoxicity", "result": "inactive"}
{"molecule": "CC1(CO)CC(O)C2(C)CCC3(C)C(=CCC4C5(C=O)CCC(OC6OC(C(=O)O)C(O)C(O)C6OC6OC(C(=O)O)C(O)C(O)C6O)C(C)(C)C5CCC43C)C2C1 (centres undefined)", "observed.property": "activity change, negative = cytotoxicity", "result": "3.36% [at 11.6 µM] (inactive)"}
{"molecule": "Fc1ccc(-c2c3cccc(C(F)(F)F)c3nn2Cc2ccc(F)cc2Cl)cc1", "observed.property": "activity change, negative = cytotoxicity", "result": "inactive"}
{"molecule": "N[C@@H](CC(=O)Nc1ccc(Oc2cc(F)c(F)cc2Br)cc1)C(=O)O", "observed.property": "activity change, negative = cytotoxicity", "result": "inactive"}

Next molecule, please.
State its activity change, negative = cytotoxicity: Nc1c(-c2ccccc2)nc(Cl)c2c(O)n[nH]c(=O)c12
inactive

###

tested on: CASKI; test: Primary qHTS to identify gynecologic anti-cancer compounds using libraries of approved drugs and bioactive compounds (AID 1345084); conditions: Gynecologic cancer cell panel viability, ATPlite luminescence, 48 h; series mostly up to 57.5 µM; also: % is scaled to controls: 0 for no effect and ±100 for the full control effect; nearly all actives have a fitted effect of over 55% in size
Records with an inconclusive call do not appear. Activity calls are given as the source filed them. The call rests on the fitted dose curve; in most records, active means well fitted cell-killing curve with a large enough effect; inconclusive means small, poorly fitted or top-dose-only effect, or effect the other way; inactive means flat fitted curve, though single readings scatter.
observed.property: activity change, negative = cytotoxicity

Sample records with activity change, negative = cytotoxicity:
{"molecule": "CC(/C=C/C=C(\\C)C(=O)O[C@@H]1O[C@H](CO[C@@H]2O[C@H](CO)[C@@H](O)[C@H](O)[C@H]2O)[C@@H](O)[C@H](O)[C@H]1O)=C\\C=C\\C=C(C)\\C=C\\C=C(/C)C(=O)O[C@@H]1C[C@](O)(C(=O)O)C[C@@H](O)[C@H]1OC(=O)/C=C/c1ccc(O)c(O)c1", "activity change, negative = cytotoxicity": "21.7% [at 11.6 µM] (inactive)"}
{"molecule": "COC(=O)[C@]1(C)CCC[C@@]2(C)C(=O)CC[C@H]3C(=O)C=C(CC[C@@H]21)C3O (some centres undefined)", "activity change, negative = cytotoxicity": "inactive"}
{"molecule": "CC(=O)OC1(C)CC(O)C2(O)C=COC(OC3OC(CO)C(O)C(O)C3O)C12 (centres undefined)", "activity change, negative = cytotoxicity": "inactive"}
{"molecule": "CC(=O)O[C@H]1[C@H](OC(=O)C(C)C)[C@]2(C)OC3(CC[C@]2(C)[C@H]2CCC[C@]4(CO4)[C@]12C)COC(=O)C3 (some centres undefined)", "activity change, negative = cytotoxicity": "inactive"}
{"molecule": "C=CC(C)(O)CC/C=C(\\C)C(=O)O[C@@H]1[C@@H](O)[C@H](OC(C)(C=C)CC/C=C(\\C)C(=O)O[C@@H]2O[C@H](CO)[C@@H](O)[C@H](O)[C@H]2O)O[C@H](CO)[C@H]1OC(=O)/C(C)=C/CCC(C)(O)C=C (some centres undefined)", "activity change, negative = cytotoxicity": "-1.1% [at 11.6 µM] (inactive)"}

Answer with reported activity change, negative = cytotoxicity of O=C(CCc1ccccc1)c1c(O)c([C@@H]2O[C@H](CO)[C@@H](O)[C@H](O)[C@H]2O)c(O)c([C@@H]2O[C@H](CO)[C@@H](O)[C@H](O)[C@H]2O)c1O
inactive

Query activity change, negative = cytotoxicity for C=CC(C)(O)CC/C=C(\C)C(=O)O[C@@H]1[C@@H](O)[C@H](OC(C)(C=C)CC/C=C(\C)C(=O)O)O[C@H](CO)[C@H]1OC(=O)/C(C)=C/CCC(C)(O)C=C (some centres undefined)
inactive

Determine its reported activity change, negative = cytotoxicity: O=C(Nc1ccn(Cc2c(F)cccc2C(F)(F)F)n1)c1c(F)cccc1F
7.64% [at 11.6 µM] (inactive)

Fill in activity change, negative = cytotoxicity for record CC(=O)OC[C@]12[C@@H](OC(=O)c3ccoc3)C[C@@H]3[C@@H](OC(C)=O)[C@]1(OC3(C)C)[C@@](C)(O)C[C@H](OC(=O)c1ccoc1)[C@@H]2OC(=O)c1ccoc1
inactive

State its activity change, negative = cytotoxicity: CN1CCc2cc(Cl)c(O)cc2[C@@H](c2cccc3c2OCC3)C1
inactive
